Where do the numbers come from? From patent US20120121691A1.

System: COG-LL-332
Format: cell-based, human
Method: Statistical analyses. […] Propagated standard deviations were calculated using standard methods. Correlation analyses were performed using Sigmaplot 11 software.
readout-label: Spearman Coefficient (ρ), sphingolipid level vs cytotoxicity

>>> result("CCCCCCCCCCCCCCCCCCCCCC(=O)N[C@@H](CO)[C@H](O)CCCCCCCCCCCCCCC")
0.81
>>> result("CCCCCCCCCCCCCC=CC(O)C(CO)NC(=O)CCCCCCCCCCCCCCCCCCC (centres unmarked)")
"−0.91"
>>> result("CCCCCCCC/C=C\\CCCCCCCCCCCCCC(=O)N[C@@H](CO)[C@H](O)/C=C/CCCCCCCCCCCCC")
0.05
>>> result("CCCCCCCCCCCCCC=CC(O)C(CO)NC(=O)CCCCCCCCCCCCCCC (centres unmarked)")
"−0.05"
>>> result("CCCCCCCCCCCCCCCCCCCC(=O)N[C@@H](CO)[C@H](O)CCCCCCCCCCCCCCC")
0
>>> result("CCCCCCCC/C=C\\CCCCCCCCCCCCCC(=O)N[C@@H](CO)[C@H](O)CCCCCCCCCCCCCCC")
0.45
>>> result("CCCCCCCCCCCCCCC[C@@H](O)[C@H](CO)NC(=O)CCCCCCCCCCCCC")
0.18
>>> result("CCCCCCCCC=CCCCCCCCCCCCC(=O)NC(CO)C(O)CCCCCCCCCCCCCCC (centres unmarked)")
0.62
>>> result("CCCCCCCCCCCCCC=CC(O)C(CO)NC(=O)CCCCCCCCCCCCCCCCC (centres unmarked)")
"−0.38"
>>> result("CCCCCCCCCCCCCCCCCCCCCCCC(=O)N[C@@H](CO)[C@H](O)CCCCCCCCCCCCCCC")
0.83
>>> result("CCCCCCCCCCCCCCCCCC(=O)N[C@@H](CO)[C@H](O)CCCCCCCCCCCCCCC")
"−0.16"
>>> result("CCCCCCCCCCCCCCCC(=O)N[C@@H](CO)[C@H](O)CCCCCCCCCCCCCCC")
0.62
>>> result("CCCCCCCCC=CCCCCCCCC(=O)NC(CO)C(O)C=CCCCCCCCCCCCCC (centres unmarked)")
"−0.30"
>>> result("CCCCCCCCC=CCCCCCCCCCCCC(=O)NC(CO)C(O)C=CCCCCCCCCCCCCC (centres unmarked)")
"−0.26"
>>> result("CCCCCCCCCCCCCC=CC(O)C(CO)NC(=O)CCCCCCCCCCCCCCCCCCCCC (centres unmarked)")
0
>>> result("CCCCCCCCCCCCC/C=C/[C@@H](O)[C@H](CO)NC(=O)CCCCCCCCCCCCC")
"−0.28"
>>> result("CCCCCCCCCCCCCC=CC(O)C(CO)NC(=O)CCCCCCCCCCCCCCCCCCCCCCC (centres unmarked)")
0.38
